B1: CDC25A (parent)
chain: KPIVPTDGKRVIVVFHCEFSSERG

variants of: B1; assay: protein stability index of a GFP-peptide fusion (GPS, HEK-293T) (PSI 1-6); higher = more stable; conditions: c terminus: a fixed tail appended;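 also: lentivirally expressed fusions sorted by FACS into six bins by GFP to DsRed ratio, PSI derived from sequencing read proportions per bin multiplied by bin number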
Catalogue of variants with associated protein stability index
Give only the figure.

ALTERATION	REPORTED_VALUE
E22D	2.61
I12C	2.1
E22R	2.68
F15S	3.47
I12N	2.99
I3H	1.89

Indicate its recorded protein stability index; the variant in question is F15C
1.68

// fetch protein stability index given entry E18I
2.28

Return value of protein stability index for input P5N , no commentary.
4.39

Give protein stability index for V4C
2.14

Fill in protein stability index for record R10P
3.09
